Just for reference, patent US20240240209A1 is where these values come from.

Here, each record is paired with measured cis-α-irone content (percentage of cis-α-irone in the irone mixture) data.
assay: Cell lysate reaction of pMT enzymes with psi-ionone, irones quantified by HS-SPME-GCMS; type: biochemical; settings: cell extracts with psi-ionone

Problem: Param item = pMT4: pMT1 with Y200F S182E L273V (protein, Modified from pMT1, pMT1 with Y200F S182E L273V) MPQEARTPQQQVTADEVGDWYDKFGEVYHLTLGESVHCGLWFPPDAPVPQDMELVTMSSQAQDRYTDYLIETLDPKAGQHLLDIGCGTGRTALKAARQRGIAVTGVAVSKEQIAAANRLAAGHGLTERLTFEVADAMRLPYEDESFDCAWAIESLCHMDRAKALGEAWRVLKPGGDLLVLEEVVTEELTEPETALFETLFAANVPPRLGEFFDIVSGAGFHTLSLKDLSANLAMTMNVFALGVYSRRAEFTERFGAEFVDGLLAGLGSAQETVIRKTRFFMATLRKPAV ; retrieve measured cis-α-irone content (percentage of cis-α-irone in the irone mixture).
Result: ~80%

Problem: Check pMT5: pMT1 with Y200F S182E L273V L180A (protein, Modified from pMT1, pMT1 with Y200F S182E L273V L180A) MPQEARTPQQQVTADEVGDWYDKFGEVYHLTLGESVHCGLWFPPDAPVPQDMELVTMSSQAQDRYTDYLIETLDPKAGQHLLDIGCGTGRTALKAARQRGIAVTGVAVSKEQIAAANRLAAGHGLTERLTFEVADAMRLPYEDESFDCAWAIESLCHMDRAKALGEAWRVLKPGGDLLVAEEVVTEELTEPETALFETLFAANVPPRLGEFFDIVSGAGFHTLSLKDLSANLAMTMNVFALGVYSRRAEFTERFGAEFVDGLLAGLGSAQETVIRKTRFFMATLRKPAV too.
Result: ~90%
